Each entry below carries its recorded IC50.
Tested on: 485176-168-R4-J1-PDC complex spheroid growth
Assay: Anticancer human tumor 485176-168-R4-J1-PDC patient-derived pancreatic adenocarcinoma cell line growth inhibition [RAS]
Details: curve of first compound; second compound 0.3 µM

Some compounds with recorded IC50:
{"COMPOUND": "CC(=O)OC12COC1CC(O)C1(C)C(=O)C(O)C3=C(C)C(OC(=O)C(O)C(NC(=O)OC(C)(C)C)c4ccccc4)CC(O)(C(OC(=O)c4ccccc4)C21)C3(C)C (centres undefined) + CCn1c(-c2cccnc2C(C)OC)c2c3cc(ccc31)N1CCOC(CC(NC(=O)C(C(C)C)N(C)C(=O)C3(F)CCN(C(=O)C#CC(C)(C)N(C)C)CC3)C(=O)N3CCCC(N3)C(=O)OCC(C)(C)C2)C1", "IC50": "< 31.6 nM"}
{"COMPOUND": "CC(C)n1nc(-c2ccc3oc(N)nc3c2)c2c(N)ncnc21 + CCn1c(-c2cccnc2C(C)OC)c2c3cc(ccc31)N1CCOC(CC(NC(=O)C(C(C)C)N(C)C(=O)C3(F)CCN(C(=O)C#CC(C)(C)N(C)C)CC3)C(=O)N3CCCC(N3)C(=O)OCC(C)(C)C2)C1", "IC50": "7.54 nM"}
{"COMPOUND": "CC(Nc1ccc2c(c1)OCCn1cc(N3C(=O)OCC3C(F)F)nc1-2)C(N)=O (centres undefined) + CCn1c(-c2cc(N3CCN(C)CC3)cnc2C(C)OC)c2c3cc(ccc31)-c1csc(n1)CC(NC(=O)C1CC1C)C(=O)N1CCCC(N1)C(=O)OCC(C)(C)C2", "IC50": "> 10000 nM"}

Per the record, Cc1nc(N2CCC3(CC2)COC(C)C3N)c(CO)nc1Sc1ccnc(N)c1Cl (centres undefined) + CCn1c(-c2cc(N3CCN(C)CC3)cnc2C(C)OC)c2c3cc(ccc31)-c1csc(n1)CC(NC(=O)C1CC1C)C(=O)N1CCCC(N1)C(=O)OCC(C)(C)C2 has IC50 of > 10000 nM

---

Test system: 485176-168-R4-J1-PDC complex spheroid growth
Assay: Anticancer human tumor 485176-168-R4-J1-PDC cell line growth inhibition [RAS];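 also: spheroids exposed to compounds for seven days before readout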
Settings: curve of first compound; second compound 3.16 µM
Excerpt: RAS pathway inhibitors in Combinations in Complex Spheroids A high-throughput screen of multi-cell type tumor spheroids was designed to identify active combinations of RAS pathway inhibitors and targeted small molecules. Complex spheroids include a stromal component modeled by human endothelial cells (HUVEC) and fibroblasts modeled by human mesenchymal stem cells (MSCs). […] Compounds. […] If the clinical Cmax for an agent had not been determined, the highest concentration tested was 10 microM. […]
MEASURED ATTRIBUTE: pIC50
# pIC50 is unitless: minus log10 of the molar concentration; print number only

// solved cases for pIC50 follow
{"COMPOUND": "CCC(CC)c1cc(NC2CCC(N)C2)n2nccc2n1 (stereo not given) + C#Cc1c(F)ccc2cc(O)cc(-c3ncc4c(N5CC6CCC(C5)N6)nc(OCC56CCCN5CC(F)C6)nc4c3F)c12", "ENDPOINT VALUE": 5.82}
{"COMPOUND": "CC(C)NCC(C(=O)N1CCN(c2ncnc3c2C(C)CC3O)CC1)c1ccc(Cl)cc1 (stereo not given) + C#Cc1c(F)ccc2cc(O)cc(-c3ncc4c(N5CC6CCC(C5)N6)nc(OCC56CCCN5CC(F)C6)nc4c3F)c12", "ENDPOINT VALUE": 5.67}

The measured pIC50 associated with CC(C)n1nc(-c2ccc3oc(N)nc3c2)c2c(N)ncnc21 + C#Cc1c(F)ccc2cc(O)cc(-c3ncc4c(N5CC6CCC(C5)N6)nc(OCC56CCCN5CC(F)C6)nc4c3F)c12 reads 7.66

---

Test system: 485176-168-R4-J1-PDC complex spheroid growth
Experiment: Anticancer human tumor 485176-168-R4-J1-PDC cell line growth inhibition [RAS];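 also: spheroids exposed to compounds for seven days before readout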;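 as to viability, T/C: luminescence viability expressed relative to DMSO vehicle wells set as 100%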
Conditions: second compound 0.03 µM; first compound 0.316 µM; stronger effect = lower value
MEASURED ATTRIBUTE: viability, T/C

Use the examples below as a reference point.
{"COMPOUND": "CC(=O)OC12COC1CC(O)C1(C)C(=O)C(O)C3=C(C)C(OC(=O)C(O)C(NC(=O)OC(C)(C)C)c4ccccc4)CC(O)(C(OC(=O)c4ccccc4)C21)C3(C)C (configuration not stated) + CCn1c(-c2cc(N3CCN(C)CC3)cnc2C(C)OC)c2c3cc(ccc31)-c1csc(n1)CC(NC(=O)C1CC1C)C(=O)N1CCCC(N1)C(=O)OCC(C)(C)C2", "viability, T/C": "13.8%"}
{"COMPOUND": "C=CC(=O)Nc1cc(Nc2nccc(-c3cn(C)c4ccccc34)n2)c(OC)cc1N(C)CCN(C)C + CCn1c(-c2cccnc2C(C)OC)c2c3cc(ccc31)N1CCOC(CC(NC(=O)C(C(C)C)N(C)C(=O)C3(F)CCN(C(=O)C#CC(C)(C)N(C)C)CC3)C(=O)N3CCCC(N3)C(=O)OCC(C)(C)C2)C1", "viability, T/C": "89.9%"}

Entry Nc1ccn(C2OC(CO)C(O)C2(F)F)c(=O)n1 (configuration not stated) + CCn1c(-c2cccnc2C(C)OC)c2c3cc(ccc31)N1CCOC(CC(NC(=O)C(C(C)C)N(C)C(=O)C3(F)CCN(C(=O)C#CC(C)(C)N(C)C)CC3)C(=O)N3CCCC(N3)C(=O)OCC(C)(C)C2)C1 — recorded viability, T/C = 8.07%

The recorded viability, T/C for C[C@@H](NC(=O)c1ncnc(N)c1Cl)c1ncc(C(=O)Nc2cc(C(F)(F)F)c(Cl)cn2)s1 + CCn1c(-c2cccnc2C(C)OC)c2c3cc(ccc31)N1CCOC(CC(NC(=O)C(C(C)C)N(C)C(=O)C3(F)CCN(C(=O)C#CC(C)(C)N(C)C)CC3)C(=O)N3CCCC(N3)C(=O)OCC(C)(C)C2)C1 is 102%

compound C=CC(=O)N1CCN(c2nc(OCC3CCCN3C)nc3c(F)c(-c4nc(N)cc(C)c4C(F)(F)F)c(Cl)cc23)C(C)C1 (configuration not stated) + CCn1c(-c2cccnc2C(C)OC)c2c3cc(ccc31)N1CCOC(CC(NC(=O)C(C(C)C)N(C)C(=O)C3(F)CCN(C(=O)C#CC(C)(C)N(C)C)CC3)C(=O)N3CCCC(N3)C(=O)OCC(C)(C)C2)C1 , viability, T/C observed: 117%

Record C=CC(=O)Nc1cc(Nc2nccc(-c3cn(C)c4ccccc34)n2)c(OC)cc1N(C)CCN(C)C + CCn1c(-c2cc(N3CCN(C)CC3)cnc2C(C)OC)c2c3cc(ccc31)-c1csc(n1)CC(NC(=O)C1CC1C)C(=O)N1CCCC(N1)C(=O)OCC(C)(C)C2 , field viability, T/C: 63.4%

For this compound ( CC(=O)OC12COC1CC(O)C1(C)C(=O)C(O)C3=C(C)C(OC(=O)C(O)C(NC(=O)OC(C)(C)C)c4ccccc4)CC(O)(C(OC(=O)c4ccccc4)C21)C3(C)C (configuration not stated) + CCn1c(-c2cccnc2C(C)OC)c2c3cc(ccc31)N1CCOC(CC(NC(=O)C(C(C)C)N(C)C(=O)C3(F)CCN(C(=O)C#CC(C)(C)N(C)C)CC3)C(=O)N3CCCC(N3)C(=O)OCC(C)(C)C2)C1 ), measured viability, T/C is 11.1%

---

System: 485176-168-R4-J1-PDC complex spheroid growth
Assay: Anticancer human tumor 485176-168-R4-J1-PDC cell line growth inhibition [RAS];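 also: spheroids exposed to compounds for seven days before readout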;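 as to viability, T/C: luminescence viability expressed relative to DMSO vehicle wells set as 100%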
Settings: second compound 0.000949 µM; first compound 0.0316 µM; stronger effect = lower value
MEASURED ATTRIBUTE: viability, T/C

Record excerpt, results attached:
{"COMPOUND": "CCC(CC)c1cc(NC2CCC(N)C2)n2nccc2n1 (stereo not drawn) + CCn1c(-c2cccnc2C(C)OC)c2c3cc(ccc31)N1CCOC(CC(NC(=O)C(C(C)C)N(C)C(=O)C3(F)CCN(C(=O)C#CC(C)(C)N(C)C)CC3)C(=O)N3CCCC(N3)C(=O)OCC(C)(C)C2)C1", "TARGET": "485176-168-R4-J1-PDC complex spheroid growth", "viability, T/C": "94.6%"}
{"COMPOUND": "C=CC(=O)Nc1cc(Nc2nccc(-c3cn(C)c4ccccc34)n2)c(OC)cc1N(C)CCN(C)C + CCn1c(-c2cccnc2C(C)OC)c2c3cc(ccc31)N1CCOC(CC(NC(=O)C(C(C)C)N(C)C(=O)C3(F)CCN(C(=O)C#CC(C)(C)N(C)C)CC3)C(=O)N3CCCC(N3)C(=O)OCC(C)(C)C2)C1", "TARGET": "485176-168-R4-J1-PDC complex spheroid growth", "viability, T/C": "102%"}

For Nc1ccn(C2OC(CO)C(O)C2(F)F)c(=O)n1 (stereo not drawn) + CCn1c(-c2cc(N3CCN(C)CC3)cnc2C(C)OC)c2c3cc(ccc31)-c1csc(n1)CC(NC(=O)C1CC1C)C(=O)N1CCCC(N1)C(=O)OCC(C)(C)C2 the compound record lists viability, T/C as 23.1%

So for C=CC(=O)N1CCN(c2nc(OCC3CCCN3C)nc3c(F)c(-c4nc(N)cc(C)c4C(F)(F)F)c(Cl)cc23)C(C)C1 (stereo not drawn) + CCn1c(-c2cccnc2C(C)OC)c2c3cc(ccc31)N1CCOC(CC(NC(=O)C(C(C)C)N(C)C(=O)C3(F)CCN(C(=O)C#CC(C)(C)N(C)C)CC3)C(=O)N3CCCC(N3)C(=O)OCC(C)(C)C2)C1 , the logged viability, T/C turned out to be 108%

Form field viability, T/C, entry CC(C)NCC(C(=O)N1CCN(c2ncnc3c2C(C)CC3O)CC1)c1ccc(Cl)cc1 (stereo not drawn) + CCn1c(-c2cc(N3CCN(C)CC3)cnc2C(C)OC)c2c3cc(ccc31)-c1csc(n1)CC(NC(=O)C1CC1C)C(=O)N1CCCC(N1)C(=O)OCC(C)(C)C2 : 116%

Consider CCN1CCN(Cc2ccc(Nc3ncc(F)c(-c4cc(F)c5nc(C)n(C(C)C)c5c4)n3)nc2)CC1 + CCn1c(-c2cc(N3CCN(C)CC3)cnc2C(C)OC)c2c3cc(ccc31)-c1csc(n1)CC(NC(=O)C1CC1C)C(=O)N1CCCC(N1)C(=O)OCC(C)(C)C2 . Its measured viability, T/C is 81%

Sample CC(Nc1ccc2c(c1)OCCn1cc(N3C(=O)OCC3C(F)F)nc1-2)C(N)=O (stereo not drawn) + CCn1c(-c2cccnc2C(C)OC)c2c3cc(ccc31)N1CCOC(CC(NC(=O)C(C(C)C)N(C)C(=O)C3(F)CCN(C(=O)C#CC(C)(C)N(C)C)CC3)C(=O)N3CCCC(N3)C(=O)OCC(C)(C)C2)C1 ; viability, T/C observed: 92.9%

response.value for CC(Nc1ccc2c(c1)OCCn1cc(N3C(=O)OCC3C(F)F)nc1-2)C(N)=O (stereo not drawn) + CCn1c(-c2cc(N3CCN(C)CC3)cnc2C(C)OC)c2c3cc(ccc31)-c1csc(n1)CC(NC(=O)C1CC1C)C(=O)N1CCCC(N1)C(=O)OCC(C)(C)C2 (field: viability, T/C) = 100%
